Entry source: PubChem BioAssay (NCI)

Test system: SK-OV-3 ovarian
Assay: NCI tumour cell line growth inhibition, 48 h
# reported TGI; entries follow

# annotated cases, reported TGI shown
In [3]: df
Out[3]:
                                   compound  subject_of_test  endpoint_name  meas_value
0  Nc1n[nH]c2cc(F)c([C@@H]3Nc4ccc5[nH]ncc5c4[C@H]4C5CCC(C5)[C@@H]34)cc12 (stereo partly drawn)  SK-OV-3 ovarian            TGI   > 32.1 µM
1           O=S(=O)(c1ccccc1)c1cccc2c1NCCC2  SK-OV-3 ovarian            TGI     > 10 µM
2       Cc1ccc(/C=C/C(=O)c2cccc3ccccc23)cc1  SK-OV-3 ovarian            TGI     62.5 µM
3  CC(=O)N1C(C(=O)NC2CCCCC2)CSC1c1ccccc1 (stereo not drawn)  SK-OV-3 ovarian            TGI    > 100 µM

Report TGI for "N#C/C(=C\c1cccc(Cl)c1Cl)c1ccccc1" please.
> 89.9 µM

I have this compound here, "CCOC(=O)N1CCN(Cc2cc(=O)n3ccc(C)cc3n2)CC1" , and I need its recorded TGI.
> 100 µM

Which TGI value is on record for CCCCCCCCCCCCC(O)c1ccc(C#CCCCCCCCCCO)o1 (stereo not drawn) ?
62.2 µM

Tell me the measured TGI of "O=C(NCc1ccccc1)c1n[nH][nH]c1=O" , please.
> 100 µM

Given the compound "Cc1ccc(N(Cc2ccccc2)Cc2ccccc2)cc1" , what is its reported TGI?
> 100 µM

Report TGI for "COc1ccc(-c2cn[nH]c2-c2cc(OC)c(OC)c(OC)c2)cc1" please.
9.12 µM

Reported TGI, compound COc1ccc(C2[C@@H](c3ccccc3)C(=O)N2c2cc(OC)c(OC)c(OC)c2)cc1F (stereo partly drawn) : ____
> 100 µM
